Numbers sourced from ChEMBL document CHEMBL1151865.

pKi: −log10 of the molar value.
Endpoint: pKi. System: UniProtKB P0C6X7. Items follow.
PROPERTY LABEL: pKi

1. CCN(CC)C(=O)CC[C@H](NC(=O)[C@H](CC(C)C)NC(=O)[C@@H](NC(=O)OCc1ccccc1)C(C)C)C(=O)c1nccs1 :: 3.95
2. CCN(CC)C(=O)CC[C@H](NC(=O)[C@@H](NC(=O)OCc1ccccc1)C(C)C)C(=O)c1nc2ccccc2s1 :: 3.80
3. CCCN(CCC)C(=O)CC[C@H](NC(=O)[C@H](CC(C)C)NC(=O)[C@@H](NC(=O)[C@H](C)NC(=O)OCc1ccccc1)C(C)C)C(=O)C(F)(F)F :: 3.53
4. CCCN(CCC)C(=O)CC[C@H](NC(=O)[C@H](CC(C)C)NC(=O)OCc1ccccc1)C(=O)C(F)(F)F :: 3.23
5. CC(C)C[C@H](NC(=O)[C@@H](NC(=O)OCc1ccccc1)C(C)C)C(=O)N[C@@H](CCC(=O)N(C)Cc1ccccc1)C(=O)C(F)(F)F :: 4.47
6. CCN(CC)C(=O)CC[C@H](NC(=O)[C@@H](NC(=O)OCc1ccccc1)C(C)C)C(=O)c1nccs1 :: 3.21
7. CCN(CC)C(=O)CC[C@H](NC(=O)[C@H](CC(C)C)NC(=O)[C@@H](NC(=O)OCc1ccccc1)C(C)C)C(=O)c1nc2ccccc2s1 :: 4.31
8. CCN(CC)C(=O)CC[C@H](NC(=O)[C@H](CC(C)C)NC(=O)OCc1ccccc1)C(=O)c1nccs1 :: 3.34
9. CC(C)C[C@H](NC(=O)[C@@H](NC(=O)OCc1ccccc1)C(C)C)C(=O)N[C@@H](CCC(=O)c1nccs1)C(=O)c1nccs1 :: 4.34
10. CC(C)C[C@H](NC(=O)[C@@H](NC(=O)OCc1ccccc1)C(C)C)C(=O)N[C@@H](CCC(=O)N1CCOCC1)C(=O)c1nccs1 :: 3.32
11. CCCN(CCC)C(=O)CC[C@H](NC(=O)[C@H](CC(C)C)NC(=O)[C@@H](NC(=O)OCc1ccccc1)C(C)C)C(=O)C(F)(F)F :: 3.44
12. CC(C)C[C@H](NC(=O)[C@@H](NC(=O)OCc1ccccc1)C(C)C)C(=O)N[C@@H](CCC(=O)N1CCOCC1)C(=O)C(F)(F)F :: 4.68
